# Tested on: SNB-75
# run_description: NCI tumour cell line growth inhibition, 48 h
The source made the active and inactive calls. Cut-off read from the data, not from the text of the source: active = GI50 up to about 1.1 µM and inactive = higher.
endpoint_label: GI50

GI50 reported for this compound Cc1cc(Cl)ccc1C1OC(=O)c2c1ccc1ccccc21 (stereo unspecified) : 29.9 µM (inactive)

Just so you know, measured GI50 for Cc1ccc(/N=C/c2ccc3c(c2)OCO3)cc1C came out at > 100 µM (inactive)

Per the records, this compound ( COC(=O)C(C(=O)C(=O)Nc1ccc([N+](=O)[O-])cc1)c1nc2cc(C)c(C)cc2nc1O (stereo unspecified) ) has GI50 equal to > 100 µM (inactive)

Just so you know, measured GI50 for COc1ccc(-c2cc(C(=O)Nc3cc(C(F)(F)F)cc(C(F)(F)F)c3)c3ccccc3n2)cc1 came out at 13.7 µM (inactive)

Input C=CCSC(C)=O . Output GI50: > 100 µM (inactive)

So for COc1ccc2c(c1)OC[C@@H]1c3cc4c(cc3O[C@H]21)OCO4 , the logged GI50 turned out to be 11.6 µM (inactive)

GI50 recorded for this compound, CCOP(=O)(CC1CC(O)(CNc2cc(Cl)nc(N)n2)C1)OCC (stereo unspecified) , is > 100 µM (inactive)

Lab book: GI50 of Cc1cc(=O)oc2c(CN(CCCl)CCCl)c(O)ccc12 noted as 53.5 µM (inactive)

Recorded GI50 (compound C1CSCCSCCS1 ): > 100 µM (inactive)

# GI50 of COC(=O)c1ccc(NCc2cc(O)c3ccccc3c2O)cc1 = 22.5 µM (inactive)

So for Clc1ccc(Cc2nc3ccccc3s2)c(Cl)c1 , the logged GI50 turned out to be 14.7 µM (inactive)

Short answer for Cc1cc(NS(=O)(=O)c2ccc(NC(=O)c3cccc4c(=O)c5ccccc5[nH]c34)cc2)no1 : GI50 was 23.1 µM (inactive)

Entry under test: CC(=O)Nc1ccc(S(=O)(=O)N/N=C/c2cc(I)cc([N+](=O)[O-])c2O)cc1 . Its GI50 was 25.6 µM (inactive)

For this compound ( O=Cc1ccc2c(c1I)OCO2 ), measured GI50 is > 100 µM (inactive)

Query O=C1c2ccccc2C(=O)N1C/C=N/NS(=O)(=O)c1ccc(Br)cc1 yields GI50 of > 100 µM (inactive)

Data point: O=C(NCc1cccc2ccccc12)N/N=C\c1ccc(Cl)cc1 ; GI50 = 62.8 µM (inactive)

Source listed as ChEMBL document CHEMBL1201862.
